Measured pKi, listed per entry for reference.
# Assay Target: UniProtKB P42262
# Test Name: Binding affinity at iGluR2 receptor S1S2J domain expressed in sf9 cells by radioligand binding assay
pKi: −log10 of the molar value.
Readout Label: pKi

> print(dat)
                   chem.smiles  quantitative.result
1  N[C@H](Cc1ns[nH]c1=O)C(=O)O                 6.27
2     N[C@@H](Cc1nsnc1O)C(=O)O                 6.49

---

The compounds listed here are annotated with their Ki.
# Assay Target: Glutamate receptor 2 (Homo sapiens)
# Sequence (P42262 whole entry): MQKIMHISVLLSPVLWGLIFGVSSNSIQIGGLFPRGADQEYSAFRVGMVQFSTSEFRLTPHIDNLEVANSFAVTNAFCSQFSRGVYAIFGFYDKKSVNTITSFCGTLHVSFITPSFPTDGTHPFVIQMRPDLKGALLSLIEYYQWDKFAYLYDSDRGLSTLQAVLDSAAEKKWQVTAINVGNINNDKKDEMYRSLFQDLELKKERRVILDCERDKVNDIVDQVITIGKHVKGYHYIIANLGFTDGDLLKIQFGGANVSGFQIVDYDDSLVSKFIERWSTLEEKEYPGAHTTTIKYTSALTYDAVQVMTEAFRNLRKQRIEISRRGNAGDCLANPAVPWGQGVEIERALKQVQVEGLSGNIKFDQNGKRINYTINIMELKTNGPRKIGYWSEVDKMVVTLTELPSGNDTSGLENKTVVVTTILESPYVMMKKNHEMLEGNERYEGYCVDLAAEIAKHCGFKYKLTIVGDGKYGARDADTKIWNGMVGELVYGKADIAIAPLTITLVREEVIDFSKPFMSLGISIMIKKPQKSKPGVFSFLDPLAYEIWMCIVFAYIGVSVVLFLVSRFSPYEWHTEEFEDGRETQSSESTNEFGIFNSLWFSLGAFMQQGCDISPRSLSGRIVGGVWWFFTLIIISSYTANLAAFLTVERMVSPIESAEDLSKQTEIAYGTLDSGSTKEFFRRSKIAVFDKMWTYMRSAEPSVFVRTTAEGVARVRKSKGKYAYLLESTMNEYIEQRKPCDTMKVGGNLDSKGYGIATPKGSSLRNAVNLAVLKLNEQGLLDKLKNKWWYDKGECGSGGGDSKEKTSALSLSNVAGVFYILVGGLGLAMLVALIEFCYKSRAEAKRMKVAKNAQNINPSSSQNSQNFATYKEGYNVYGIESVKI
# Test Name: Binding affinity at iGluR2o(R) receptor expressed in sf9 cells by radioligand binding assay
Readout Label: Ki (nM)

> print(dat)
                   chem.smiles                         assay.target  readout.label  unit.abbrev  quantitative.result
1     N[C@@H](Cc1nsnc1O)C(=O)O  Glutamate receptor 2 (Homo sapiens)             Ki           nM                  273
2  N[C@H](Cc1ns[nH]c1=O)C(=O)O  Glutamate receptor 2 (Homo sapiens)             Ki           nM                  234

---

In what follows, each item is paired with its pKi for Glutamate receptor 3 (Homo sapiens, UniProt P42263).
pKi: −log10 of the molar value.
Readout Label: pKi

> print(dat)
                   chem.smiles  readout.label  quantitative.result
1  N[C@H](Cc1ns[nH]c1=O)C(=O)O            pKi                 5.97
2     N[C@@H](Cc1nsnc1O)C(=O)O            pKi                 6.80

---

The compounds below have reported Ki for Glutamate receptor 4 (Homo sapiens).
Readout Label: Ki (nM)

> print(dat)
                   chem.smiles                         assay.target  unit.abbrev  quantitative.result
1     N[C@@H](Cc1nsnc1O)C(=O)O  Glutamate receptor 4 (Homo sapiens)           nM                  182
2  N[C@H](Cc1ns[nH]c1=O)C(=O)O  Glutamate receptor 4 (Homo sapiens)           nM                 1050

---

Reported Ki by item:
# Assay Target: Glutamate receptor 1 (Homo sapiens)
# Sequence (P42261 whole entry): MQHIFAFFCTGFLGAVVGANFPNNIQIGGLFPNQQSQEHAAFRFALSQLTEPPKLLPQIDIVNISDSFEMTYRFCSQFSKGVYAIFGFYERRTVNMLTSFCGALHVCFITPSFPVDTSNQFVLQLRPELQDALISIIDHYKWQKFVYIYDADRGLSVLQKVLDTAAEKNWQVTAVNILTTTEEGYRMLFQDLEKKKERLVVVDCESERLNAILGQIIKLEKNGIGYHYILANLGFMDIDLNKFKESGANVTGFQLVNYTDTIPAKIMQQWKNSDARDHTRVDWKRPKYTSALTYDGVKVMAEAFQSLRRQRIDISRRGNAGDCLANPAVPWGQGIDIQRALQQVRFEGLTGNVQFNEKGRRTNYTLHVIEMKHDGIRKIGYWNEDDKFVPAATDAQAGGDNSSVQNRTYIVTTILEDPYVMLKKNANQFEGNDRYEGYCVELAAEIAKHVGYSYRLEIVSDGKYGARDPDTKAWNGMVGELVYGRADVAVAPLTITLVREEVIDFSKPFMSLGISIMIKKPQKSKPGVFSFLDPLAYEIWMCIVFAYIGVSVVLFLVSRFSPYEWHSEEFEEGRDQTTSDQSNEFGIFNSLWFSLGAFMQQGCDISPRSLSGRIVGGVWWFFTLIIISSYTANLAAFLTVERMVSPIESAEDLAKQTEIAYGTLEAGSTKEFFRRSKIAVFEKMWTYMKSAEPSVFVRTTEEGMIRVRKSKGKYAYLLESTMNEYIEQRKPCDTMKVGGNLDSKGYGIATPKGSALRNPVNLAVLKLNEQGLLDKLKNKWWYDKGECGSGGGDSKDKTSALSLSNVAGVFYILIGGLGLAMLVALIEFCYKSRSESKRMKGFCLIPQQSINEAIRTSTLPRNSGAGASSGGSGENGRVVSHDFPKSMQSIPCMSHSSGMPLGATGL
Readout Label: Ki (µM)

> print(dat)
                   chem.smiles                         assay.target  quantitative.result
1     N[C@@H](Cc1nsnc1O)C(=O)O  Glutamate receptor 1 (Homo sapiens)                0.185
2  N[C@H](Cc1ns[nH]c1=O)C(=O)O  Glutamate receptor 1 (Homo sapiens)                 0.15
